Test system: DAF-12 nuclear receptor (Heterodera glycines), GAL4-LBD fusion
assay-name: H. glycines DAF-12 receptor agonists, confirmation, cell-based, luminescence, HEK293, GAL4-LBD fusion (AID 743050)
condition-notes: HEK293 GAL4-hgDAF12 luciferase reporter, agonist mode; at 6.8 µM; percent of butyrate response
Some of the results follow. Active and inactive are the calls of the source.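 Rule for the calls: active = mean activation over triplicate wells above the hit cutoff derived from the earlier primary screen (cut at about 11% in these data); inactive = the rest.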
Outcome codes: active, inactive

compound: Cc1cccc(NC(=O)Nc2ccc3c(c2)OCO3)n1
assigned-category: active
--
compound: Cc1ccnc(Nc2nc3ccccc3s2)n1
assigned-category: active
--
compound: COc1ccc2nc(SCc3ccccc3)nc(C)c2c1
assigned-category: active
--
compound: Cc1ccc(NC(=O)c2ccco2)cc1
assigned-category: active
--
compound: CCSc1nnc(NC(=O)c2ccc(C)cc2)s1
assigned-category: active
--
compound: O=C(Nc1ccc(Cl)c(Cl)c1)c1ccccc1NC(=O)C1CC=CCC1C(=O)O (configuration not stated)
assigned-category: inactive
--
compound: Brc1ccc(C2CC(c3ccccc3)=Nc3ccccc3N2)cc1 (configuration not stated)
assigned-category: active
--
compound: Cc1cc(N=Nc2ccc3ccccc3c2)ccc1O
assigned-category: active
--
compound: CC(=O)c1ccccc1NC(=O)COC(=O)C1COc2ccccc2O1 (configuration not stated)
assigned-category: inactive
--
compound: Cc1cccc(NC(=S)NC(=O)c2ccc(Br)o2)c1
assigned-category: active
--
compound: CC1CCCN(c2ccc(C(=O)NCCc3ccccc3)cn2)C1 (configuration not stated)
assigned-category: active
--
compound: O=C(O)c1ccc2c(c1)C(=O)N(c1ccc(/C=C/C(=O)c3ccccc3)cc1)C2=O
assigned-category: inactive

----------
tested-target: Nuclear receptor subfamily 5 group A member 2 (Homo sapiens) (UniProt O00482)
Sequence (O00482 whole entry, looked up): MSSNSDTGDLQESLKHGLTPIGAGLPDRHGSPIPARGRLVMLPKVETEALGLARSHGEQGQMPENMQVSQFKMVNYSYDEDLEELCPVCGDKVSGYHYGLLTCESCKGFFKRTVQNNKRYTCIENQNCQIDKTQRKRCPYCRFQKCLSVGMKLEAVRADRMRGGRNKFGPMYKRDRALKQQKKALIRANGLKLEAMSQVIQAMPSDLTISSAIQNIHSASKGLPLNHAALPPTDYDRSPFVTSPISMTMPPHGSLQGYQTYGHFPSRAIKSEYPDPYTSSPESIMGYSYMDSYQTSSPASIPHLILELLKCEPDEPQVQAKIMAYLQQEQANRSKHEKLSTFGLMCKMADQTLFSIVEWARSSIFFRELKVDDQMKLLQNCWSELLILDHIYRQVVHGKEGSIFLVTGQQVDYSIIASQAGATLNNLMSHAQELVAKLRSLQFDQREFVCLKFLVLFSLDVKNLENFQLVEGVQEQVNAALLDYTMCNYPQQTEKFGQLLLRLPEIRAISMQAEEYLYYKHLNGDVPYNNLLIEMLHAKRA
assay-name: LRH-1 (NR5A2) inverse agonists, retest, confirmation, cell-based, luminescence (AID 651613);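 note: HEK293T cells co-transfected with LRH-1 and StAR promoter luciferase reporter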
condition-notes: cell-based LRH-1 luciferase reporter, inverse agonism; at 3.6 µM; stronger effect = higher value
We use 60% as the dividing line for inhibition: on or above the line is y, below is n.

compound: O=C(CSc1nnnn1C1CCCC1)Nc1ccc2c(c1)OCCO2
assigned-category: n
//
compound: CCC(=O)NC(c1ccc(Cl)cc1Cl)c1ccc2cccnc2c1O (stereo not given)
assigned-category: y
//
compound: COc1cc2c(cc1OC)CN(C(=O)c1ccc([N+](=O)[O-])o1)CC2
assigned-category: y
//
compound: COC(=O)c1cc2occc2n1CC(=O)Nc1ccc(C)cc1C
assigned-category: y
//
compound: O=C(c1ccc(=O)n(Cc2ccccc2)n1)N1CCN(C/C=C/c2ccccc2)CC1
assigned-category: n
//
compound: CCCN(CC(=O)Nc1ccc(C(C)=O)cc1)CC(=O)Nc1ccccc1C
assigned-category: y
//
compound: CCCCCc1ccc(OCCCC[n+]2cccc(C)c2)c(CCCCC)c1
assigned-category: y
//
compound: CCOc1cc(CNc2ccc3c(c2)OCCO3)cc(Br)c1OC
assigned-category: n
//
compound: CCc1cc(=O)oc2cc3occ(-c4ccc(OC)c(F)c4)c3cc12
assigned-category: y
//
compound: Cc1cc2nc(C3CCCCC3)c(Cc3ccsc3)n2c(C)c1Br
assigned-category: n
//
compound: CC1CCCC(C)N1C(=O)COC(=O)Cc1ccc(F)cc1 (stereo not given)
assigned-category: n
//
compound: COc1ccc2c(c1)-c1c(ssc1=S)C(C)(C)N2
assigned-category: n
//
compound: C=CS(=O)(=O)N(Cc1ccccc1Br)[C@H](CO)Cc1ccccc1
assigned-category: n
//
compound: COc1ccc(CC(=O)Nc2ccncc2Cl)cc1
assigned-category: n
//
compound: Cc1cc2oc(=O)cc(-c3ccccc3)c2c(C)c1-c1ccc(N(C)C)cc1
assigned-category: n
//
compound: CC1(C(=O)NCc2ccco2)Cc2c(-c3ccccc3)ccnc2O1 (stereo not given)
assigned-category: n
//
compound: CCOC(=O)N1CCN(C(=O)CCl)CC1
assigned-category: n
//
compound: Cc1c(C(=O)NC(C)c2ccncc2)oc2ccccc12 (stereo not given)
assigned-category: n
//
compound: Cc1cc(/C=C2\SC(=S)N(C)C2=O)c(C)n1-c1ccc(O)cc1
assigned-category: n
//
compound: COc1ccc(OC)c(C2NC(=O)c3sc(=S)n(-c4ccccc4)c3N2)c1 (stereo not given)
assigned-category: n
//
compound: CC(C)(Oc1ccc(Cl)cc1)C(=O)OCC(=O)NCCc1ccccc1
assigned-category: n
//
compound: Cc1nc(C)c(-c2csc(Nc3cccnc3)n2)s1
assigned-category: n
//
compound: CCOc1ccc(CCNC(=O)COC(=O)CSc2ccccc2C)cc1OCC
assigned-category: n
//
compound: Cc1ccc2[nH]cc(/C=C/c3cc[n+](C)cc3)c2c1
assigned-category: y
//
compound: CC1CC(C)C(=O)C(C(CC2CC(=O)NC(=O)C2)OC(=O)CC(=O)c2ccccc2)C1 (stereo not given)
assigned-category: y
//
compound: CC(O)(c1cccc(F)c1)c1nc(-c2ccc(S(C)(=O)=O)cc2)cs1 (stereo not given)
assigned-category: n
//
compound: CCOc1ccc(Cc2nnc(SCC(=O)Nc3ccc(C(C)=O)cc3)[nH]c2=O)cc1
assigned-category: n
//
compound: CC1=NN(c2nc3ccccc3[nH]2)C(=O)C1Cc1ccccc1 (stereo not given)
assigned-category: y
//
compound: Cc1ccc2c(c1)Oc1ccc(NC(=O)CCl)cc1C(=O)N2
assigned-category: y
//
compound: O=C(NCC1CCCO1)c1cc2c([nH]c3ccccc32)c(-c2ccc(F)cc2)n1 (stereo not given)
assigned-category: n
//
compound: CCN(CC)c1ccc2nc3ccc(N)cc3[n+](-c3ccccc3)c2c1
assigned-category: y
//
compound: O=[N+]([O-])c1ccc(Sc2cccc[n+]2[O-])c2nonc12
assigned-category: y
//
compound: Cc1nc2c(O)c3c(c(O)c2nc1C)C1C=CC3CC1
assigned-category: y
//
compound: O=C(Nc1nc(-c2ccccc2)cs1)c1ccccc1NS(=O)(=O)c1ccc(F)cc1
assigned-category: y
//
compound: O=C(CCl)NCCN1C(=O)S/C(=C\c2cccnc2)C1=O
assigned-category: n
//
compound: O=C(CSCC(=O)Nc1ccccc1)N/N=C/c1c(O)ccc2ccccc12
assigned-category: y
//
compound: COc1cc(-c2noc(C)c2/C=C/c2ccc(N)cc2)cc(OC)c1OC
assigned-category: n
//
compound: CCOc1cc(S(=O)(=O)NCc2ccncc2)ccc1Cl
assigned-category: n
//
compound: C#Cc1cc(N2CCN(C(=O)c3ccoc3)CC2)n2nc(-c3cccc(Cl)c3)cc2n1
assigned-category: n
//
compound: Cc1ccc(O)c(N=Nc2nccs2)c1
assigned-category: y
